conditions: in isobutanol, 278.15 K
Measurement Type: solubility (mole fraction)
Give the figure only, with no unit attached.

Qu. What value of solubility (mole fraction) has been reported for the following compound? CC1(C)O[C@@H]2[C@@H](CO[C@@]3(COS(N)(=O)=O)OC(C)(C)O[C@@H]23)O1
Ans. 0.00375

====

details: in n-heptanol, 308.15 K
Measurement Type: solubility (mole fraction)

Qu. What value of solubility (mole fraction) has been reported for the following compound? CC1(C)O[C@@H]2[C@@H](CO[C@@]3(COS(N)(=O)=O)OC(C)(C)O[C@@H]23)O1
Ans. 0.0116

====

conditions: in n-hexanol, 298.15 K
Measurement Type: solubility (mole fraction)
Give the figure only, with no unit attached.

Qu. What value of solubility (mole fraction) has been reported for the following molecule? CC1(C)O[C@@H]2[C@@H](CO[C@@]3(COS(N)(=O)=O)OC(C)(C)O[C@@H]23)O1
Ans. 0.00807

====

settings: in methanol, 298.15 K
Measurement Type: solubility (mole fraction)

Qu. What value of solubility (mole fraction) has been reported for the following compound? CC1(C)O[C@@H]2[C@@H](CO[C@@]3(COS(N)(=O)=O)OC(C)(C)O[C@@H]23)O1
Ans. 0.081

====

details: in n-heptanol, 288.15 K
Measurement Type: solubility (mole fraction)
Give the figure only, with no unit attached.

Qu. What value of solubility (mole fraction) has been reported for the following compound? CC1(C)O[C@@H]2[C@@H](CO[C@@]3(COS(N)(=O)=O)OC(C)(C)O[C@@H]23)O1
Ans. 0.00425

====

details: in methanol, 323.15 K
Measurement Type: solubility (mole fraction)
Give the figure only, with no unit attached.

Qu. What value of solubility (mole fraction) has been reported for the following molecule? CC1(C)O[C@@H]2[C@@H](CO[C@@]3(COS(N)(=O)=O)OC(C)(C)O[C@@H]23)O1
Ans. 0.174

====

details: in isopentanol, 323.15 K
Measurement Type: solubility (mole fraction)

Qu. What value of solubility (mole fraction) has been reported for the following molecule? CC1(C)O[C@@H]2[C@@H](CO[C@@]3(COS(N)(=O)=O)OC(C)(C)O[C@@H]23)O1
Ans. 0.0353

====

conditions: in n-heptanol, 323.15 K
Measurement Type: solubility (mole fraction)
Give the figure only, with no unit attached.

Qu. What value of solubility (mole fraction) has been reported for the following molecule? CC1(C)O[C@@H]2[C@@H](CO[C@@]3(COS(N)(=O)=O)OC(C)(C)O[C@@H]23)O1
Ans. 0.0256

====

details: in n-hexanol, 288.15 K
Measurement Type: solubility (mole fraction)
Give the figure only, with no unit attached.

Qu. What value of solubility (mole fraction) has been reported for the following compound? CC1(C)O[C@@H]2[C@@H](CO[C@@]3(COS(N)(=O)=O)OC(C)(C)O[C@@H]23)O1
Ans. 0.00496

====

details: in 2-ethoxyethanol, 308.15 K
Measurement Type: solubility (mole fraction)
Give the figure only, with no unit attached.

Qu. What value of solubility (mole fraction) has been reported for the following molecule? CC1(C)O[C@@H]2[C@@H](CO[C@@]3(COS(N)(=O)=O)OC(C)(C)O[C@@H]23)O1
Ans. 0.173

====

conditions: in methanol, 308.15 K
Measurement Type: solubility (mole fraction)

Qu. What value of solubility (mole fraction) has been reported for the following compound? CC1(C)O[C@@H]2[C@@H](CO[C@@]3(COS(N)(=O)=O)OC(C)(C)O[C@@H]23)O1
Ans. 0.112

====

conditions: in isobutanol, 308.15 K
Measurement Type: solubility (mole fraction)
Give the figure only, with no unit attached.

Qu. What value of solubility (mole fraction) has been reported for the following molecule? CC1(C)O[C@@H]2[C@@H](CO[C@@]3(COS(N)(=O)=O)OC(C)(C)O[C@@H]23)O1
Ans. 0.0166

====

details: in n-heptanol, 293.15 K
Measurement Type: solubility (mole fraction)
Give the figure only, with no unit attached.

Qu. What value of solubility (mole fraction) has been reported for the following compound? CC1(C)O[C@@H]2[C@@H](CO[C@@]3(COS(N)(=O)=O)OC(C)(C)O[C@@H]23)O1
Ans. 0.0054

====

conditions: in isobutanol, 293.15 K
Measurement Type: solubility (mole fraction)
Give the figure only, with no unit attached.

Qu. What value of solubility (mole fraction) has been reported for the following compound? CC1(C)O[C@@H]2[C@@H](CO[C@@]3(COS(N)(=O)=O)OC(C)(C)O[C@@H]23)O1
Ans. 0.00684

====

details: in 2-propoxyethanol, 298.15 K
Measurement Type: solubility (mole fraction)
Give the figure only, with no unit attached.

Qu. What value of solubility (mole fraction) has been reported for the following molecule? CC1(C)O[C@@H]2[C@@H](CO[C@@]3(COS(N)(=O)=O)OC(C)(C)O[C@@H]23)O1
Ans. 0.109

====

settings: in 2-ethoxyethanol, 323.15 K
Measurement Type: solubility (mole fraction)
Give the figure only, with no unit attached.

Qu. What value of solubility (mole fraction) has been reported for the following molecule? CC1(C)O[C@@H]2[C@@H](CO[C@@]3(COS(N)(=O)=O)OC(C)(C)O[C@@H]23)O1
Ans. 0.229

====

details: in n-butanol, 298.15 K
Measurement Type: solubility (mole fraction)
Give the figure only, with no unit attached.

Qu. What value of solubility (mole fraction) has been reported for the following compound? CC1(C)O[C@@H]2[C@@H](CO[C@@]3(COS(N)(=O)=O)OC(C)(C)O[C@@H]23)O1
Ans. 0.0131

====

settings: in n-heptanol, 318.15 K
Measurement Type: solubility (mole fraction)
Give the figure only, with no unit attached.

Qu. What value of solubility (mole fraction) has been reported for the following molecule? CC1(C)O[C@@H]2[C@@H](CO[C@@]3(COS(N)(=O)=O)OC(C)(C)O[C@@H]23)O1
Ans. 0.0196

====

conditions: in 2-methoxyethanol, 293.15 K
Measurement Type: solubility (mole fraction)
Give the figure only, with no unit attached.

Qu. What value of solubility (mole fraction) has been reported for the following compound? CC1(C)O[C@@H]2[C@@H](CO[C@@]3(COS(N)(=O)=O)OC(C)(C)O[C@@H]23)O1
Ans. 0.176

====

details: in isopropanol, 293.15 K
Measurement Type: solubility (mole fraction)
Give the figure only, with no unit attached.

Qu. What value of solubility (mole fraction) has been reported for the following molecule? CC1(C)O[C@@H]2[C@@H](CO[C@@]3(COS(N)(=O)=O)OC(C)(C)O[C@@H]23)O1
Ans. 0.014

====

settings: in n-hexanol, 293.15 K
Measurement Type: solubility (mole fraction)
Give the figure only, with no unit attached.

Qu. What value of solubility (mole fraction) has been reported for the following compound? CC1(C)O[C@@H]2[C@@H](CO[C@@]3(COS(N)(=O)=O)OC(C)(C)O[C@@H]23)O1
Ans. 0.00628

====

conditions: in 2-propoxyethanol, 323.15 K
Measurement Type: solubility (mole fraction)
Give the figure only, with no unit attached.

Qu. What value of solubility (mole fraction) has been reported for the following molecule? CC1(C)O[C@@H]2[C@@H](CO[C@@]3(COS(N)(=O)=O)OC(C)(C)O[C@@H]23)O1
Ans. 0.187

====

conditions: in n-butanol, 318.15 K
Measurement Type: solubility (mole fraction)

Qu. What value of solubility (mole fraction) has been reported for the following compound? CC1(C)O[C@@H]2[C@@H](CO[C@@]3(COS(N)(=O)=O)OC(C)(C)O[C@@H]23)O1
Ans. 0.0397

====

settings: in n-hexanol, 308.15 K
Measurement Type: solubility (mole fraction)

Qu. What value of solubility (mole fraction) has been reported for the following compound? CC1(C)O[C@@H]2[C@@H](CO[C@@]3(COS(N)(=O)=O)OC(C)(C)O[C@@H]23)O1
Ans. 0.0138

====

details: in isopropanol, 278.15 K
Measurement Type: solubility (mole fraction)

Qu. What value of solubility (mole fraction) has been reported for the following compound? CC1(C)O[C@@H]2[C@@H](CO[C@@]3(COS(N)(=O)=O)OC(C)(C)O[C@@H]23)O1
Ans. 0.00638

====

details: in n-propanol, 298.15 K
Measurement Type: solubility (mole fraction)
Give the figure only, with no unit attached.

Qu. What value of solubility (mole fraction) has been reported for the following molecule? CC1(C)O[C@@H]2[C@@H](CO[C@@]3(COS(N)(=O)=O)OC(C)(C)O[C@@H]23)O1
Ans. 0.0187

====

settings: in n-propanol, 323.15 K
Measurement Type: solubility (mole fraction)
Give the figure only, with no unit attached.

Qu. What value of solubility (mole fraction) has been reported for the following compound? CC1(C)O[C@@H]2[C@@H](CO[C@@]3(COS(N)(=O)=O)OC(C)(C)O[C@@H]23)O1
Ans. 0.0794

====

settings: in n-hexanol, 313.15 K
Measurement Type: solubility (mole fraction)
Give the figure only, with no unit attached.

Qu. What value of solubility (mole fraction) has been reported for the following compound? CC1(C)O[C@@H]2[C@@H](CO[C@@]3(COS(N)(=O)=O)OC(C)(C)O[C@@H]23)O1
Ans. 0.018
